Numbers sourced from patent US20090264469A1.

In this section we review reported EC50 values for a set of compounds.
Biological target: Human S1P2 receptor (Homo sapiens, UniProt O95136)
Construct: expressed in transfected cells; host or cells: HEK 293 or CHOK1 cells (membranes)
Sequence (O95136 whole entry): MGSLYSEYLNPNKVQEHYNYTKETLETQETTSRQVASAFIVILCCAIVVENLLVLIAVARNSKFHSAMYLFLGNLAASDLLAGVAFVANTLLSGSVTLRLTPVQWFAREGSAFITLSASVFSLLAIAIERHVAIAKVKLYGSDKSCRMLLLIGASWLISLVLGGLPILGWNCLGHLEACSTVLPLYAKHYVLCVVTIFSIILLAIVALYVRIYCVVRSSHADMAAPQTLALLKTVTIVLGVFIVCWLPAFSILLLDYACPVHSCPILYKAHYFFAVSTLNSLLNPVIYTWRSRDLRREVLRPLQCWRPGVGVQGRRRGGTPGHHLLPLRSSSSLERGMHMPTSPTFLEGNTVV
Experiment: GTP-γ-35S binding, agonist activity on S1P2 receptor
Format: biochemical
Conditions: membranes of transfected HEK 293 or CHOK1 cells, [35S]GTP-γ-S binding
endpoint.label: EC50

INSERT INTO measurements (compound, obs_value) VALUES
  ('CCCCCCCCCCc1ccc(CNC2CCC(C(=O)O)(C(=O)O)C2)cc1 (centres unmarked) [Example 12]', '5 nM'),
  ('CCCCCCCCCc1ccc(CNC2CCC(C(=O)O)(C(=O)O)C2)cc1 (centres unmarked) [Example 3]', '4 nM');
